- study-system: GlcNAc(b1-4)[GlcNAc(b1-6)]GalNAc
- experiment-description: glycan array binding signal (z-score within array); higher = stronger binding
- cond: glycan notation: IUPAC condensed, linker removed
The full list was thinned out, with the strongest signals kept by preference.

[
  {
    "binder": "Gal 4 (Canis lupus) (protein) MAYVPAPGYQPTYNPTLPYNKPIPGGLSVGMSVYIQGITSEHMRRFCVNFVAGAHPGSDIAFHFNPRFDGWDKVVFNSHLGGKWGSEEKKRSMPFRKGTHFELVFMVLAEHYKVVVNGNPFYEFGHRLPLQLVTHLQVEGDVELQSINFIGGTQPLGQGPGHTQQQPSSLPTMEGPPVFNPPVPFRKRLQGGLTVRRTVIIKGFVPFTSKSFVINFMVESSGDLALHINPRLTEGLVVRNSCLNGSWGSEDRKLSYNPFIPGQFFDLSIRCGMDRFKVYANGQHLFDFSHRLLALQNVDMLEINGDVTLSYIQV",
    "glycan array binding signal (z-score)": -0.147
  }
]

Origin of the recorded values: the supplement of paper PMC8728848
